- testSystem: TCR Vβ17 on T cells of PBMCs
- Sequence (A0A075B6N1 22-114): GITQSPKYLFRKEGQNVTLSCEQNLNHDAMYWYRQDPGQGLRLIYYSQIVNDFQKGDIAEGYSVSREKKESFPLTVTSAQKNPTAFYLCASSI
- experimentSummary: cell-based or functional assay
quantityName: Proliferation (EC50, ug/ml) (µg/mL)
Please reply with the bare figure in µg/mL and do not write the unit itself.

Query: Tell me the measured Proliferation (EC50, ug/ml) of 28C9A5 (antibody, IgG2b, V domains shown) VH: EVQLQESGAELVRPGTSVKMSCKASGYTFTHYWIDWTKQRPGHGLEWIGNIYPGGGYTNYNENFKGKATLTADKSSSTVFMQFSSLTSDDSAIYYCTRKGYYYGSDWYFDVWGTGTTVTVSS VL: QIVLSQSPAIMSASPGEKVTMTCSASSSVSYMHWYQQKSGTSPKRWIYDTSKLASGVPARFSGSGSGTSYSLTISSMEAEDAATYYCQQWSSNPYTFGGGTKLEIK , please.
Result: 0.9

Query: Same for 21G11D5 (antibody, V domains shown) VH: EVQLQESGPDLKKPGETVKISCKASGYTFTTYGMNWVKQAPGKGLKWMGYLNTYSGVSTYADDFKGRFAFSLETSANTAYLQINNLRNDDTATYFCARWGNYGAMDYWGQGTSVTVSS VL: DIVMTQSPLSLPVSLGDQASISCRSSQSIVRSNGFTYLEWYLQKPGQSPELLIYKVSNRFSGVPDRFSGSGSGTDFTLKISRVEAEDLGVYYCFQSSHVPRTFGGGTKLEIK
Result: 2
